- target: Thromboxane-A synthase (Homo sapiens, UniProt P24557)
- Sequence (P24557 whole entry): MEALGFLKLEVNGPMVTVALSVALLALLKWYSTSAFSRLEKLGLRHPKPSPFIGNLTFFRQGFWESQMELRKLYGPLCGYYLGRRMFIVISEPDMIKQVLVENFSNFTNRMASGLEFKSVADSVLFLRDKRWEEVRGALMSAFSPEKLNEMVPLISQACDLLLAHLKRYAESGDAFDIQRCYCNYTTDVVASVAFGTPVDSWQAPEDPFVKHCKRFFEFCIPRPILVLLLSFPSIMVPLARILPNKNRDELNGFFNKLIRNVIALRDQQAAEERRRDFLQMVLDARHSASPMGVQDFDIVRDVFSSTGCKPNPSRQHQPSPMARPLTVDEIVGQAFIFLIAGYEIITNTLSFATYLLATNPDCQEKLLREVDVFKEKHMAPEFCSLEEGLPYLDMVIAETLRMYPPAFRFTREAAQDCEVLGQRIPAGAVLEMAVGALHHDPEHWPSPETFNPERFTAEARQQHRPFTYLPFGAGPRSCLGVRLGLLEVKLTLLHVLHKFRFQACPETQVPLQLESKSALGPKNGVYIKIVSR
value_type: IC50 (µM)

# annotated cases, reported IC50 shown
Prompt: Suppose we examine the compound "N#Cc1cccc(OCCn2ccnc2)c1" ; what IC50 value has been reported?
Completion: 3.5

Prompt: Suppose we examine the compound "c1c[nH]cn1" ; what IC50 value has been reported?
Completion: 670

1: CCOC(=O)c1ccccc1OCCn1ccnc1
2: CCOC(=O)Cc1ccccc1OCCn1ccnc1
3: CCOC(=O)c1ccc(OCCCn2ccnc2)cc1
4: N#Cc1ccc(OCCn2ccnc2)cc1
5: O=C(O)Cc1ccc(OCCn2ccnc2)cc1
Prompt: Reorder the items by IC50, least to greatest. Answer format: list of labels, ordered as asked.
Completion: 5, 2, 3, 1, 4

Reference for the values: ChEMBL document CHEMBL1122814
